Biological target: Mm53BP1[1463–1617] (mouse, UniProt P70399 1463-1617)
Sequence (P70399 1463-1617): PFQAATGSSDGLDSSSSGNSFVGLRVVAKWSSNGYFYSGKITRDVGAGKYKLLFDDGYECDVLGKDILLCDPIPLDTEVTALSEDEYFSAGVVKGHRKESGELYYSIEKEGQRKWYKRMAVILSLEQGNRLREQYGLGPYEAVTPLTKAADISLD
Test: ITC
Ends that are not written are not given here. Me2 = dimethylated (lysine)
reported-endpoint: Kd (µM)

KRHRK(Me2)VLRD [Metazoan H4-K20me2 peptide] = 7.7
GKGGAKRHRKVLRDNIQGK (K* dimethylated (K20, tenth residue of the peptide)) [Metazoan H4-K20me2-long peptide] = 8.8
